# systemUnderTest: T1, Bir3 domain of XIAP (residues 252-350) with a C-terminal His tag (UniProt P98170 252-350)
# T1 construct: Stored with 10 mM beta-mercaptoethanol and dialysed before experimental use; also called Bir3 subunit of XIAP; XIAP (252-350); source: E. coli BL21 Star (DE3), purified (nickel-Sepharose, Sephacryl S100 gel filtration)
# T1 sequence (P98170 252-350): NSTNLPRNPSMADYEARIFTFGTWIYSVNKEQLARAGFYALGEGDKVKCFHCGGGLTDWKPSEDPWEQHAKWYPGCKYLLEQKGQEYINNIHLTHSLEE
# experimentNotes: fluorescence polarisation; non-labeled Bir3 (200 µl, 150 µM) titrated in 5 µl additions into 1 ml of fluorescein-labeled peptide; 20 mM Hepes pH 7.4, 45 mM NaCl, 10°C; fit to 1:1 binding model
# assayContext: both partners purified
No end group written: not given here.
quantity: pKd
Just the number, please; pKd means minus log10 of the concentration in mol/L.

{"columns": ["binder", "pKd"],
 "data": [
  ["{5'/6'‑carboxyfluorescein}-QEHQGQGCA (numbers count on: ARTS/Sept4_i2 (GenBank AAG45673.1); source: synthetic peptide) [fl-ARTS 266-274 H274A]", 6.10],
  ["{5(6)‑carboxyfluorescein}-YGPSLRLLAPPGAVKGTGQEHQGQGCH (numbers count on: ARTS/Sept4_i2 (GenBank AAG45673.1); also called fl-ARTS CTD; fluorescein-labeled ARTS CTD 248-274; source: synthetic peptide) [fl-ARTS 248-274]", 5.10],
  ["{5'/6'‑carboxyfluorescein}-QEHQGAGCH (numbers count on: ARTS/Sept4_i2 (GenBank AAG45673.1); source: synthetic peptide) [fl-ARTS 266-274 Q271A]", 5.89]
]}

Now consider a different binder.
So, {5'/6'‑carboxyfluorescein}-QEHAGQGCH (numbers count on: ARTS/Sept4_i2 (GenBank AAG45673.1); source: synthetic peptide) [fl-ARTS 266-274 Q269A] ? Its pKd was 6.00
